Biological target: T1, P6-AA-12HGe-M
T1 chain: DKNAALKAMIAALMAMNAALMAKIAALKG
Test: two-hybrid library CCmax;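 further: natural log of median RNA to DNA barcode read ratio; higher means stronger binding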
Conditions: mean of both orientations
Exercise: for every item that follows, state its recorded interaction score.
Answers are plain numbers.

The cases that follow already have their interaction score on record.
{"Binder": "DENAALEAQIAALQAQNAALQAEIAALEG [P5-AA-12HGe-Q]", "Experimental Value": 1.12}
{"Binder": "DENAALEAWIAALWAWNAALWAEIAALEG [P5-AA-12HGe-W]", "Experimental Value": 0.011}
{"Binder": "DENAALEAEIAALEAENAALEAEIAALEG [P5-AA-12HGe-E]", "Experimental Value": 0.542}
{"Binder": "DENAALEAHIAALHAHNAALHAEIAALEG [P5-AA-12HGe-H]", "Experimental Value": -1.41}
{"Binder": "DENAALEAMIAALMAMNAALMAEIAALEG [P5-AA-12HGe-M]", "Experimental Value": 0.995}

// for each binder below, give its interaction score
1. DENAALEAKIAALKAKNAALKAEIAALEG [4H1401-AA]
2. DENAALEAAIAALAAANAALAAEIAALEG [P5-AA-12HGe-A]

1: 0.2; 2: 0.58
